Assay: Oral bioavailability in C57BL/6 mouse at 5 mg/kg by LC-MS/MS analysis
Format: ADME, organism-based
Settings: in vivo
experimental.endpoint: bioavailability

# input // query bioavailability value for entry c1ccc(-n2cc(-c3ccncc3OCC3CCNCC3)cn2)cc1
# output 43%

---

Molecular target: Maternal embryonic leucine zipper kinase (Homo sapiens, UniProt Q14680)
Sequence (Q14680 whole entry, the tested form may be a part): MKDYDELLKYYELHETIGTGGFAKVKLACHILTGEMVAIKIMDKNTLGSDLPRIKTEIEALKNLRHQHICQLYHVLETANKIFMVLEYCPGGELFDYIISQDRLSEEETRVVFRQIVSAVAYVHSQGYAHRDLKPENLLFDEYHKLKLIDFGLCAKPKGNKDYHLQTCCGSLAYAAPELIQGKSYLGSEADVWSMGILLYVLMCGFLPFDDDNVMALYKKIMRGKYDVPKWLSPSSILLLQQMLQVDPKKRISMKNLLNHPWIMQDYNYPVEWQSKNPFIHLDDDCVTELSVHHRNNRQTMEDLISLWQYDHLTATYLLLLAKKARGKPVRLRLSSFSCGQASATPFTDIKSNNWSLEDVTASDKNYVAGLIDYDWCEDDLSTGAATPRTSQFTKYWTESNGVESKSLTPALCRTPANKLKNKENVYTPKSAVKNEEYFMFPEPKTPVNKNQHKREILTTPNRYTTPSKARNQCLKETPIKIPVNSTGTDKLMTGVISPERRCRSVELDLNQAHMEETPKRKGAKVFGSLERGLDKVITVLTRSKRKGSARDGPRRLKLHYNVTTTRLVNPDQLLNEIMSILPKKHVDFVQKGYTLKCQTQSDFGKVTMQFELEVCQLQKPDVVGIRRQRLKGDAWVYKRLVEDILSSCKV
Test: Binding affinity to MELK (unknown origin) expressed in Escherichia coli by SPR analysis
experimental.endpoint: pIC50
One number for each entry, as −log10 of the molar value.

# input // query pIC50 value for entry CN1CCN(c2ccc(-n3cc(-c4ccncc4OCC4CCNCC4)cn3)cc2)CC1
# output 8.70

---

Biological target: Maternal embryonic leucine zipper kinase (Homo sapiens)
Assay: Inhibition of MELK catalytic domain (unknown origin) preincubated for 20 mins followed by addition of KinEASE STK S1 peptide as substrate in presence of 20 uM ATP measured after 20 mins by time-resolved fluorescence assay
Please respond with reported IC50 for every item in the list.
Give bare numbers, in nM.

{"columns": ["smiles.code", "result"],
 "data": [
  ["CN1CCN(c2ccc(-n3cc(-c4ccncc4F)cn3)cc2)CC1", 70]
]}

# batch size: 2; output IC50 per entry
1. CN1CCN(c2ccc(-n3cc(-c4ccncc4)cn3)cc2)CC1
2. COc1cnccc1-c1cnn(-c2ccc(N3CCN(C)CC3)cc2)c1

# output
80
64
